assay.overview: Clearance in dog with cassette dosing
Type: ADME, organism-based, Canis lupus familiaris
condition.label: in vivo
Kindly return met if reported clearance is no lower than 30 mL/min/kg; return not met if it is lower.

COc1ccc(CNC(=O)c2cc(-c3cncc(C)c3)ncc2-c2ccccc2F)nc1OC :: not met
COc1ccc(CNC(=O)c2cc(-c3cncc(C)c3)ccc2-c2ccccc2)nc1OC :: met
COc1ccc(CNC(=O)c2nc(-c3cncc(C)c3)cnc2-c2ccccc2)nc1OC :: met
COc1ccc(CNC(=O)c2cc(-c3cncc(C)c3)ncc2-c2cccc(F)c2)nc1OC :: not met
COc1ccc(CNC(=O)c2cc(-c3cncc(C)c3)ncc2-c2cncc(F)c2)nc1OC :: not met

# evaluate next
Task: Record `COc1ccc(CNC(=O)c2cc(-c3cncc(C)c3)ncc2N2CCOCC2)nc1OC` ; criterion: clearance no lower than 30 mL/min/kg. Met?
Output: not met
